For each record, write down the corresponding Wnt reporter firefly/Renilla luciferase ratio.
test system: HEK293T (UBE3A T485A transfected, BAR Wnt reporter); test: Wnt reporter firefly/Renilla luciferase ratio relative to plate median (fold (linear ratio)); higher = more Wnt/beta-catenin reporter activation; conditions: concentration: 10 uM; 24 h
The full ranking holds about 1,100 compounds; the median of “Wnt reporter firefly/Renilla luciferase ratio relative to plate median” is about 1.1, and the highest 2% start at about 1.6. Many of the other results were omitted from the sample, so the highest values are more common in it than they were.
Field format: numeric only.

Briefly, Wnt reporter firefly/Renilla luciferase ratio measured for COC(=O)CC(=O)OC [Dimethyl malonate] : 0.907

The compound listed as CC(C)NCC(O)c1ccc(O)c(O)c1.Cl (centres undefined) [Isoproterenol hydrochloride] shows Wnt reporter firefly/Renilla luciferase ratio equal to 1.15

Per the record, CCOCCOCCOCCO [2-[2-(2-Ethoxyethoxy)ethoxy]ethanol] has Wnt reporter firefly/Renilla luciferase ratio of 1.01

Record N#C[C@@H]1CC(F)(F)CN1C(=O)CNC1CC2CCC(C1)N2c1ncccn1 (some centres undefined) , field Wnt reporter firefly/Renilla luciferase ratio: 0.937

Quick note, Wnt reporter firefly/Renilla luciferase ratio for CS(=O)(=O)O.Cc1nccn1-c1ccc(Sc2cccc(C3(C(N)=O)CCOCC3)c2)cc1 landed at 0.387

Noted for CCOCCOCCO : its Wnt reporter firefly/Renilla luciferase ratio reads 0.948

Data point: Cc1cc2c(cc1C(F)(F)F)N(C(=O)Nc1ccc(Oc3cccnc3C)nc1)CC2.Cl ; Wnt reporter firefly/Renilla luciferase ratio = 0.768

So, CCCC(CCC)C(=O)O ? Its Wnt reporter firefly/Renilla luciferase ratio was 1.14

Sure, the documented Wnt reporter firefly/Renilla luciferase ratio for Nc1nc(=O)c2nc(CNc3ccc(C(=O)N[C@@H](CCC(=O)O)C(=O)O)cc3)cnc2[nH]1 is 0.97

----------
tested on: HEK293T (UBE3A T485A transfected, BAR Wnt reporter); experiment: Wnt reporter firefly/Renilla luciferase ratio relative to plate median (fold (linear ratio)); higher = more Wnt/beta-catenin reporter activation; details: concentration: 1 uM; 24 h
Over roughly 1,100 compounds, “Wnt reporter firefly/Renilla luciferase ratio relative to plate median” has its median near 1.1; the highest 2% begin near 1.6. The sample as a whole holds a higher share of the highest values than the screen did.
property-label: Wnt reporter firefly/Renilla luciferase ratio
Reply with the value as a number alone.

Value of Wnt reporter firefly/Renilla luciferase ratio reported for the compound Oc1ccc(O)cc1 [Hydroquinone] is 0.865

Cc1ccc(C)c(C)c1 yielded Wnt reporter firefly/Renilla luciferase ratio of 0.965

Reported Wnt reporter firefly/Renilla luciferase ratio for CNCc1ccc(NC(=O)c2c[nH]c3c2C(=O)CCC3)cc1 was 1.06

// c1ccc(Nc2ccccc2)cc1 : Wnt reporter firefly/Renilla luciferase ratio value = 1.19

Record OCC(O)CO . Reported Wnt reporter firefly/Renilla luciferase ratio: 0.905

Item: O=C(N[C@@H](Cc1ccccc1)[C@@H](O)C(=O)N1C[C@@H](O)[C@@H](O)C1)c1cc2cc(Cl)ccc2[nH]1 | Wnt reporter firefly/Renilla luciferase ratio: 1.69

Kindly note the recorded Wnt reporter firefly/Renilla luciferase ratio for CC(=O)c1ccccc1 , which is 1.03

get_value(item= CCCCCCCCOC(=O)c1cc(O)c(O)c(O)c1 [Octyl gallate] , readout=Wnt reporter firefly/Renilla luciferase ratio) returns 1.3

Sample NS(=O)(=O)c1cc2c(cc1Cl)NCNS2(=O)=O [Hydrochlorothiazide] ; Wnt reporter firefly/Renilla luciferase ratio observed: 1.17

Wnt reporter firefly/Renilla luciferase ratio recorded for this compound, CC(C)(C)c1cc(/C=C2\SC(=N)NC2=O)cc(C(C)(C)C)c1O.CS(=O)(=O)O [Darbufelone mesylate] , is 0.907

For reference, reported Wnt reporter firefly/Renilla luciferase ratio for CC(=O)OC/C=C(\C)CCC=C(C)C [Geranyl acetate] stands at 0.97

Kindly note the recorded Wnt reporter firefly/Renilla luciferase ratio for CCC(C)c1ccccc1O (stereo not given) , which is 0.977

Just so you know, measured Wnt reporter firefly/Renilla luciferase ratio for c1ccc2ncccc2c1 came out at 1.13

So, Cc1[nH]nc2c1N=C(c1ccccc1Cl)c1cc([N+](=O)[O-])ccc1N2 ? Its Wnt reporter firefly/Renilla luciferase ratio was 1.72

CC(C)c1cccc(C(C)C)c1 has a reported Wnt reporter firefly/Renilla luciferase ratio of 0.929

Note to self: Wnt reporter firefly/Renilla luciferase ratio recorded for CCCCCCCCCCCCCCCCOS(=O)(=O)[O-].[Na+] [Sodium hexyldecyl sulfate] was 1.09

CCCCC(CC)COC(=O)CC(C(=O)OCC(CC)CCCC)S(=O)(=O)[O-].[Na+] (stereo not given) [Docusate sodium] has a reported Wnt reporter firefly/Renilla luciferase ratio of 1.14

Record Cc1cccc(C)c1O , field Wnt reporter firefly/Renilla luciferase ratio: 0.992

Wnt reporter firefly/Renilla luciferase ratio reading for O=c1c(O)c(-c2ccc(O)c(O)c2)oc2cc(O)cc(O)c12 : 1.09

Recorded result, CCOC(=O)COc1ccc2c(c1)CC(NCC(O)c1cccc(Cl)c1)CC2.Cl (stereo not given) , Wnt reporter firefly/Renilla luciferase ratio: 1.18

Please fill in: Wnt reporter firefly/Renilla luciferase ratio reported for OCC(CO)(CO)CO = 1.51

So for O=c1c(-c2ccc(O)cc2)coc2cc(O)ccc12 , the logged Wnt reporter firefly/Renilla luciferase ratio turned out to be 1.11

Noted for CCCc1ccccc1 : its Wnt reporter firefly/Renilla luciferase ratio reads 0.856

Briefly, Wnt reporter firefly/Renilla luciferase ratio measured for O=c1c(-c2ccc(O)cc2)coc2cc(O)cc(O)c12 : 1.16

Entry Cc1cc2c(cc1C(F)(F)F)N(C(=O)Nc1ccc(Oc3cccnc3C)nc1)CC2.Cl , Wnt reporter firefly/Renilla luciferase ratio reported as 1.4

Data point: CC(C)CCCCCCOC(=O)c1ccc(C(=O)OCCCCCCC(C)C)c(C(=O)OCCCCCCC(C)C)c1 [Triisononyl trimellitate] ; Wnt reporter firefly/Renilla luciferase ratio = 0.919

Reported Wnt reporter firefly/Renilla luciferase ratio ( CCOCCOCCO ) = 1.24

Kindly note the recorded Wnt reporter firefly/Renilla luciferase ratio for CC(=O)OC1CC(C)OC(C)O1 (stereo not given) , which is 0.976

So, CN1C(=O)CC[C@H]1c1cccnc1 ? Its Wnt reporter firefly/Renilla luciferase ratio was 0.981

Sure, the documented Wnt reporter firefly/Renilla luciferase ratio for CC1(C)C(=O)N(Cl)C(=O)N1Cl is 0.849

get_value(item= CCc1ccc(CCOc2ccc(CC3SC(=O)NC3=O)cc2)nc1.Cl (stereo not given) [Pioglitazone hydrochloride] , readout=Wnt reporter firefly/Renilla luciferase ratio) returns 0.896

Lab book: Wnt reporter firefly/Renilla luciferase ratio of C1N2CN3CN1CN(C2)C3 noted as 1.16

Per the records, this compound ( CC(C)=CCC/C(C)=C\CO ) has Wnt reporter firefly/Renilla luciferase ratio equal to 0.941

Entry CCOCCO ; Wnt reporter firefly/Renilla luciferase ratio = 1.01

Wnt reporter firefly/Renilla luciferase ratio in this record for CCCCCCCCCCCC[N+](C)(C)C.[Cl-] [Dodecyltrimethylammonium chloride] : 1.1

Summary for this compound, Cc1ccc(C(C)C)c(O)c1 : Wnt reporter firefly/Renilla luciferase ratio is 1.09

Lab book: Wnt reporter firefly/Renilla luciferase ratio of CS(=O)(=O)c1ccc([C@@H](CC2CCCC2)C(=O)Nc2cnccn2)cc1Cl noted as 1.16

Input CCCCCCCCCCCCOS(=O)(=O)[O-].[Na+] [Sodium dodecyl sulfate] . Output Wnt reporter firefly/Renilla luciferase ratio: 0.99

Reported Wnt reporter firefly/Renilla luciferase ratio ( O=C(O)c1cccc(C(=O)O)c1 ) = 1.28

Form field Wnt reporter firefly/Renilla luciferase ratio, entry CCC(C)N(C)C(=O)c1cc2ccccc2c(-c2ccccc2Cl)n1 (stereo not given) : 1.31
